Entries annotated with measured Ki
# tested_on: Somatostatin receptor type 4 (Homo sapiens)
# Sequence (P31391 whole entry): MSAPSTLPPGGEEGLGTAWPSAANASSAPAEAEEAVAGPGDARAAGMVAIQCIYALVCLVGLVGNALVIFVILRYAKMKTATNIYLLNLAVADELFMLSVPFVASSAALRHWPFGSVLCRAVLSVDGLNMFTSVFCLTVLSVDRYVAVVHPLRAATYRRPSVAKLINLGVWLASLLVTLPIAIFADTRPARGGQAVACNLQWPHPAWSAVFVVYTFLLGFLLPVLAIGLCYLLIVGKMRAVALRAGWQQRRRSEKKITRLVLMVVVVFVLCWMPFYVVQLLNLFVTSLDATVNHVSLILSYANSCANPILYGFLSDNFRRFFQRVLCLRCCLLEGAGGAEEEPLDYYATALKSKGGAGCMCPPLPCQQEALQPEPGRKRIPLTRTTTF
# test_method_notes: Inhibition of human somatostatin receptor type 4
Bridge positions count the residues as written; N and C are the ends. Peptide text beside a SMILES is read from it.
Express your answer in nM, writing the number without its unit.

These solved cases illustrate the format of a correct answer.
- compound: "C[C@H](N)C(=O)NCC(=O)N[C@H]1CSSC[C@@H](C(N)=O)NC(=O)[C@H](CO)NC(=O)[C@H]([C@@H](C)O)NC(=O)[C@H](Cc2ccccc2)NC(=O)[C@H]([C@@H](C)O)NC(=O)[C@H](CCCCN)NC(=O)[C@H](Cc2c[nH]c3ccccc23)NC(=O)[C@H](Cc2ccccc2)NC(=O)[C@H](C)NC(=O)[C@H](CC(N)=O)NC(=O)[C@H](CCCCN)NC1=O (H-AGCKNAFWKTFTSC-NH2; disulfide 3-14)"
  tested_on: "Somatostatin receptor type 4 (Homo sapiens)"
  unit_of_measure: "nM"
  Ki: 80
- compound: "C[C@H](N)C(=O)NCC(=O)N[C@H]1CSSC[C@@H](C(=O)O)NC(=O)[C@H](CO)NC(=O)[C@H]([C@@H](C)O)NC(=O)[C@H](Cc2ccccc2)NC(=O)[C@H]([C@@H](C)O)NC(=O)[C@H](CCCCN)NC(=O)[C@@H](Cc2c[nH]c3ccccc23)NC(=O)[C@H](Cc2ccccc2)NC(=O)[C@H](Cc2cnccn2)NC(=O)[C@H](CC(N)=O)NC(=O)[C@H](CCCCN)NC1=O"
  tested_on: "Somatostatin receptor type 4 (Homo sapiens)"
  unit_of_measure: "nM"
  Ki: 60

// next entry
Lab book: Ki of C[C@H](N)C(=O)NCC(=O)N[C@H]1CSSC[C@@H](C(=O)O)NC(=O)[C@H](CO)NC(=O)[C@H]([C@@H](C)O)NC(=O)[C@H](Cc2ccccc2)NC(=O)[C@H]([C@@H](C)O)NC(=O)[C@H](CCCCN)NC(=O)[C@@H](Cc2c[nH]c3ccccc23)NC(=O)[C@H](Cc2cnccn2)NC(=O)[C@H](Cc2ccccc2)NC(=O)[C@H](CC(N)=O)NC(=O)[C@H](CCCCN)NC1=O noted as 700

---

# tested_on: UniProt:P31391
# test_method_notes: Inhibition of human somatostatin receptor type 4
readout_type: pKi
As a rule, pKi stands for the negative log10 of the concentration, concentration in M.

Lab book: pKi of C[C@H](N)C(=O)NCC(=O)N[C@H]1CSSC[C@@H](C(=O)O)NC(=O)[C@H](CO)NC(=O)[C@H]([C@@H](C)O)NC(=O)[C@H](Cc2cnccn2)NC(=O)[C@H]([C@@H](C)O)NC(=O)[C@H](CCCCN)NC(=O)[C@@H](Cc2c[nH]c3ccccc23)NC(=O)[C@H](Cc2ccccc2)NC(=O)[C@H](Cc2ccccc2)NC(=O)[C@H](CC(N)=O)NC(=O)[C@H](CCCCN)NC1=O noted as 6.91
